Where these numbers come from: patent US11623919B2

Biological target: P2X7 receptor (Rattus norvegicus, UniProt Q64663)
Construct: rP2X7 (IC50; nM); other: rP2X7; HEK-293 cells stably transfected with P2X7 receptor, Bz-ATP at EC80, Fluo-8 NW; potency
Sequence (Q64663 1-595): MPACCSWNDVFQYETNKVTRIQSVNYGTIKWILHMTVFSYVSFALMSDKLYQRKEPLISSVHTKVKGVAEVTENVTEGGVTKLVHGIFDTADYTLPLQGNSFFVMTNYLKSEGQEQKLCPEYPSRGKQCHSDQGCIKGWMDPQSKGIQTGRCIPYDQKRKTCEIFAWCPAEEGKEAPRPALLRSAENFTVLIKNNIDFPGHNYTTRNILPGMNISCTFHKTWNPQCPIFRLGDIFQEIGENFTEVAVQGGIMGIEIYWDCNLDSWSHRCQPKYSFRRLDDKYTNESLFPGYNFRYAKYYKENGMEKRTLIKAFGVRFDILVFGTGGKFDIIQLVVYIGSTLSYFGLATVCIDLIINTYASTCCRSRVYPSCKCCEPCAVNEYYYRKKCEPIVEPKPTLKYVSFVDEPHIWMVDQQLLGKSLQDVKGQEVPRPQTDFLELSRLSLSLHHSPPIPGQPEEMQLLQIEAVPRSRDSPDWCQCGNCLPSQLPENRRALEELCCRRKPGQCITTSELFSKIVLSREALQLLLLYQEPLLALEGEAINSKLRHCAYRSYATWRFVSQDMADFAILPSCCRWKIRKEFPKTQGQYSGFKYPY
Assay: Screen Quest Fluo-8 No Wash Calcium Assay (Bz-ATP evoked Ca2+ influx, FLIPR)
Type: cell-based
Conditions: rP2X7; HEK-293 cells stably transfected with P2X7 receptor, Bz-ATP at EC80, Fluo-8 NW; potency ranges A-D
Description: Extracellular binding of Bz-ATP to P2X7 receptor opens the channel and allows Ca2+ influx into the cells. […] Its fluorescence increases upon binding to calcium. HEK-293 cells stably transfected with P2X7 receptor were seeded overnight in growth medium at 10,000 to 20,000 cell/well in 384-well plate. […] Then 10 μL/w of tests compounds and reference antagonist A438079 at 3×-concentration were injected with the […] and the kinetic response over a period of five minutes was monitored. […]
readout: IC50

>  <compound>
O=c1onc(CC2CCC(F)(F)CC2)n1Cc1ccc(C(F)(F)F)cc1 [Example 166]

>  <target desc>
P2X7 receptor (Rattus norvegicus, UniProt Q64663)

>  <IC50>
1000 to 10000 nM

$$$$
>  <compound>
O=c1onc(CC2CCC(F)(F)CC2)n1Cn1ccc(C(F)(F)F)n1 [Example 198]

>  <target desc>
P2X7 receptor (Rattus norvegicus, UniProt Q64663)

>  <IC50>
1000 to 10000 nM

$$$$
>  <compound>
O=c1onc(CC2CCC(F)(F)CC2)n1Cc1nccs1 [Example 191]

>  <target desc>
P2X7 receptor (Rattus norvegicus, UniProt Q64663)

>  <IC50>
200 to 1000 nM

$$$$
>  <compound>
O=c1onc(Cc2ccccc2F)n1Cc1c(F)cccc1Cl [Example 19]

>  <target desc>
P2X7 receptor (Rattus norvegicus, UniProt Q64663)

>  <IC50>
1000 to 10000 nM

$$$$
>  <compound>
O=c1onc(Cc2ccccn2)n1CC1CCCCC1 [Example 110]

>  <target desc>
P2X7 receptor (Rattus norvegicus, UniProt Q64663)

>  <IC50>
1000 to 10000 nM

$$$$

Now consider the entry below.
Find the measured IC50 of Cc1ncccc1Cc1noc(=O)n1CC1CCCCC1 [Example 218] and report it. 200 to 1000 nM
